assay: solvent given as SMILES; details: in CO
PROPERTY: absorption maximum (nm)
One number for each entry, in nm.

Give absorption maximum for each listed item.
1. COC(=O)c1nc2cnc(N)nc2n1Cc1ccccc1
2. CCc1ccc(/C=C/c2ccc(-c3nnc(-c4ccc(-c5cc6ccccc6s5)cc4)o3)cc2)cc1
3. Cc1ccc(C(=O)/C=C/c2ccc(N(C)C)cc2)cc1

1: 335; 2: 326; 3: 419

* * *

Task for the reader: assign each of the following compounds its reported absorption maximum.
test: solvent given as SMILES; settings: in ClCCl
Give bare numbers, in nm.

COMPOUND | PROPERTY | UNITS | RECORDED_NUMBER
COc1ccc2c(c1)-c1cc3c(cc1[Si]2(c1ccccc1)c1ccccc1)-c1ccccc1[Si]3(c1ccccc1)c1ccccc1 | absorption maximum | nm | 334

Below are some compounds; for each one, tell me its absorption maximum.
1. COC(=O)c1nc2c(N(C)C)nc(N)nc2n1Cc1ccccc1
2. COc1ccc(C2=C3C=C(/C=C/C(=O)OC(C)(C)C)C=[N+]3[B-](F)(F)n3cccc32)cc1
3. Cc1ccc(C#Cc2ccc3nc4ccc(C#Cc5ccc(C)cc5)cn4c(=O)c3c2)cc1
4. CC1(C)c2ccccc2N(c2ccc(-c3nnc(-c4ccccc4O)o3)cc2)c2ccccc21
5. Cc1cc2ccccc2c2c1c1ccccc1n2-c1ncccn1
6. CN(C)c1cc(-c2ccc(C#Cc3ccncc3)cc2)cc2ccccc12

[330, 536, 385, 366, 303, 311]

* * *

test: solvent given as SMILES; details: in C1CCCCC1
Answer each item with its documented absorption maximum.
One number for each entry, in nm.

Known results for compounds:
COMPOUND | UNITS | absorption maximum
CCCCCCCCCCCCCCCCOC(=O)c1ccc(N(c2ccccc2)c2ccccc2)cc1 | nm | 334
N#Cc1cc2nc3c(nc2cc1C#N)C1c2ccc(N(c4ccccc4)c4ccccc4)cc2C3c2ccc(N(c3ccccc3)c3ccccc3)cc21 | nm | 428
CCC(C)(C)c1ccc2c(c1)C(CCOC)(CCOC)c1cc(-c3ccc(-c4ccc5c(c4)C(CCOC)(CCOC)c4cc(C(C)(C)CC)ccc4-5)cc3)ccc1-2 | nm | 332
O=C1c2ccccc2-c2ccc(N3CCN(c4ccccc4)CC3)c3cccc1c23 | nm | 423
N#C/C(=C\c1cc(/C=C(\C#N)c2ccc(C(F)(F)F)cc2)c(-c2ccc(N(c3ccccc3)c3ccccc3)cc2)cc1-c1ccc(N(c2ccccc2)c2ccccc2)cc1)c1ccc(C(F)(F)F)cc1 | nm | 405

I have 4 compounds here; please give me absorption maximum for each one.
1. COc1ccc2n1[B-](F)(F)[N+]1=C(c3ccccc3)C=CC1=C2c1ccc(C)cc1
2. Nc1ccc2cc3ccccc3cc2c1
3. CCCCC(CC)CN1C(=O)c2cccc3c(C#Cc4ccc(N(c5ccccc5)c5ccccc5)cc4)ccc(c23)C1=O (stereo unspecified)
4. c1ccc(-c2oc(-c3ccccc3)c3ccccc23)cc1

1. 532
2. 397.61
3. 422
4. 411

Provide absorption maximum values for the following items, in order.
1. c1ccc2[nH]ncc2c1
2. Cc1ccc(/C=C/c2nc3ccccc3s2)cc1

1. 294
2. 345

* * *

Task for the reader: assign each of the following compounds its reported absorption maximum.
assay: solvent given as SMILES; settings: in CC#N
Answers are plain numbers, in nm.

// below: answered compounds
COMPOUND | absorption maximum (nm)
CC(=O)c1ccc2ccc3c(NCCC(=O)NCCCCCCc4nc5c(=O)[nH]c(N)nc5n4[C@H]4C[C@H](O)[C@@H](CO)O4)ccc4ccc1c2c43 | 440
COC(=O)c1cc(=O)n(C)c2cc(-c3ccc(N(C)C)cc3)sc12 | 428
CCOC(=O)CN(CC(=O)OCC)c1ccc(-c2cc(-c3ccccn3)nc(-c3ccccn3)c2)cc1 | 328
Oc1ccccc1/N=C/c1ccccc1Oc1ccccc1 | 349
CC(C)(C)c1ccc2c(c1)c1cc(C(C)(C)C)ccc1n2-c1ccccc1-c1nc(-c2ccccc2-n2c3ccc(C(C)(C)C)cc3c3cc(C(C)(C)C)ccc32)nc(-c2ccccc2P(=O)(c2ccccc2)c2ccccc2)n1 | 340.7
C(=C\c1c2ccccc2cc2ccccc12)/c1ccc2ccccc2n1 | 390

// batch mode: one absorption maximum value per listed entry
1. CN(C)c1ccc(/C=C/C=C/c2ccncc2)cc1
2. C[n+]1ccc2c(ccc3c[n+](C)ccc32)c1

392
387

* * *

assay: solvent given as SMILES; settings: in CO
PROPERTY: absorption maximum (nm)
One number for each entry, in nm.

Solved entries (count: 2):
COMPOUND | RECORDED_NUMBER
O=[N+]([O-])c1ccc(S(=O)(=O)Nc2ccc(C#Cc3ccc4ccc5ccc(C#Cc6ccc(NS(=O)(=O)c7ccc([N+](=O)[O-])cc7[N+](=O)[O-])cc6)c6ccc3c4c56)cc2)c([N+](=O)[O-])c1 | 402
CN(C)c1ccc(/C=C/c2cc[n+](CCC[n+]3ccc(/C=C/c4ccc(N(C)C)cc4)cc3)cc2)cc1 | 494

Could I get absorption maximum for every one of these entries?
1. Cc1cc(=O)oc2cc3c4ccccc4c4ccccc4c3cc12
2. C1=Nc2cccc3cccc(c23)N1

1. 377
2. 329

For the compound shown here, C[Si]1(C)C2=C(c3ccc(N(c4ccccc4)c4ccccc4)cc31)P(=O)(c1ccccc1)c1ccccc12 (stereo not given) , give the reported absorption maximum.
452

* * *

Would you kindly list absorption maximum for each of these compounds?
test: solvent given as SMILES; conditions: in ClCCl
Answers are plain numbers, in nm.

COMPOUND | PROPERTY | RECORDED_NUMBER
COc1c2ccccc2c(OC)c2c1c1cc(F)ccc1n2C | absorption maximum | 419
CC(C)(C)c1ccc2c(c1)c1cc(C(C)(C)C)ccc1n2-c1ccccc1-c1nc(-c2ccccc2P(=O)(c2ccccc2)c2ccccc2)nc(-c2ccccc2P(=O)(c2ccccc2)c2ccccc2)n1 | absorption maximum | 341.49
S=P1(c2ccccc2)c2cccc3c4c5ccccc5c5ccccc5c4c4ccc1n4c23 (stereo unspecified) | absorption maximum | 422
CN(C)c1ccc(/C=C/c2ccncn2)cc1 | absorption maximum | 393
CCCCN1C(=O)C(=C/C=C/C=C/C=C2N(CCCC)c3ccccc3N2CCCC)C(=O)N(CCCC)C1=S | absorption maximum | 642

Field request: absorption maximum | item: COc1ccc(/C=C/C2=CC(/C=C/c3ccc(OC)cc3)=[O+][B-](OC(C)=O)(OC(C)=O)O2)cc1
464

* * *

experiment: solvent given as SMILES; settings: in CC#N
Would you mind telling me the reported absorption maximum of each entry?
Remember to put the unit after the number in your answer.

Some compounds with recorded absorption maximum:
COMPOUND | PROPERTY | RESULT
CC(C)(C)C1Nc2ccccc2C(=O)N1Cc1ccccc1 (configuration not stated) | absorption maximum | 344 nm
F[B-]1(F)n2cccc2C(c2ccccc2)=C2C=CC(N3CCOCC3)=[N+]21 | absorption maximum | 473 nm
CN(C)c1ccc(/C=C/c2ccc(-c3nnc(-c4ccc(-c5cc6ccccc6s5)cc4)o3)cc2)cc1 | absorption maximum | 334 nm
CCCCCCc1ccc(-n2c3[n+](c4c5ccccc5c5ccccc5c42)[B-](C)(C)c2cc(N(c4ccccc4)c4ccccc4)ccc2-3)cc1 | absorption maximum | 390 nm
O=c1c(Nc2ccccc2)c([O-])c1=[NH+]c1ccccc1 | absorption maximum | 390 nm

For each listed entry, give its absorption maximum.
1. F[B-]1(F)n2cccc2C(c2c3ccccc3cc3ccccc23)=C2C=CC=[N+]21
2. CC1(C)c2ccccc2N(c2ccc(-c3nnc(-c4ccccc4O)o3)cc2)c2ccccc21

502 nm
358 nm
